Experiment: Kinetic viscosity of saccharide solution, Ubbelohde viscosimeter, Japanese Pharmacopoeia 13th edition
Assay type: physicochemical
Details: 0.5 g of component dissolved in 50 ml of water (25° C.)
Experimental: The value shown after each component in parenthesis is the kinetic viscosity of the solution in which 0.5 g of each component is dissolved in 50 ml of water (25° C.).
Outcome Measure: kinetic viscosity (cSt)

molecule="OC[C@H]1O[C@@](CO)(O[C@H]2O[C@H](CO)[C@@H](O)[C@H](O)[C@H]2O)[C@@H](O)[C@@H]1O [sucrose]" reading_unit=cSt reported_result=0.912
molecule="OC[C@@H](O)[C@@H](O)[C@H](O)[C@H](O)CO [mannitol]" reading_unit=cSt reported_result=0.896
molecule="OC[C@@H](O)[C@H](O)[C@@H](O)CO [xylitol]" reading_unit=cSt reported_result=0.904
molecule="OC[C@@H](O)[C@@H](O[C@H]1O[C@H](CO)[C@@H](O)[C@H](O)[C@H]1O)[C@H](O)[C@@H](O)CO [maltitol]" reading_unit=cSt reported_result=0.904
molecule="OC[C@@H](O)[C@@H](O)[C@H](O)[C@@H](O)CO [sorbitol]" reading_unit=cSt reported_result=0.897
molecule="OC[C@H]1O[C@H](O[C@H]2O[C@H](CO)[C@@H](O)[C@H](O)[C@H]2O)[C@H](O)[C@@H](O)[C@@H]1O [trehalose]" reading_unit=cSt reported_result=0.891

The measurements presented in this section are drawn from patent US20030194434A1.
